Hello, the source for this data is patent US10519162B2, in case you need it.

target_system: human mGlu2 receptor (Homo sapiens, UniProt Q14416)
Construct: expressed in transfected cells; host or cells: CHO cells
Sequence (Q14416 19-872): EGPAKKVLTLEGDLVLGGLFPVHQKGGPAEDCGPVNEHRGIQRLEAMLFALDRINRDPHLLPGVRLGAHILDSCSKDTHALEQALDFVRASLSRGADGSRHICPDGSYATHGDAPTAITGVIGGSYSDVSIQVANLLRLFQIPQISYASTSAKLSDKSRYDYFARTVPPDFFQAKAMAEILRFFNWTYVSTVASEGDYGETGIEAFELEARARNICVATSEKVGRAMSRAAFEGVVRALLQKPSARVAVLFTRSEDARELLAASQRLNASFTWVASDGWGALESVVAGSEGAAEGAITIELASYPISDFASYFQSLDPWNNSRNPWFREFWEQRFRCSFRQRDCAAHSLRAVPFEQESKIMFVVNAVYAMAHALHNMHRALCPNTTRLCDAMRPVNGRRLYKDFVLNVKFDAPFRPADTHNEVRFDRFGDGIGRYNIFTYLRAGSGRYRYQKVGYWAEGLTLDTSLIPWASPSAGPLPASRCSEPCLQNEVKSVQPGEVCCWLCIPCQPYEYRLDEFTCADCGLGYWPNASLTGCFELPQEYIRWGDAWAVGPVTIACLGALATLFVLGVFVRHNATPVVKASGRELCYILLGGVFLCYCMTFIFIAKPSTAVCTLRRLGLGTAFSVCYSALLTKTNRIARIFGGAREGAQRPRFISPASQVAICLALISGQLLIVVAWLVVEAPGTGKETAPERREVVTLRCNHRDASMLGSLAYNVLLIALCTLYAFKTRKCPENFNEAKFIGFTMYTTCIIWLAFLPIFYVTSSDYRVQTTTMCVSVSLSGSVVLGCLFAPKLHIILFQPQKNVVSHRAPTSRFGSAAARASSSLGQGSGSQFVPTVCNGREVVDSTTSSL
assay_summary: [35S]GTPγS binding assay (mGluR2 negative allosteric modulation, glutamate ~EC80 60 μM)
Format: biochemical
condition_set: membranes from CHO cells transfected with human mGlu2 receptor; glutamate ~EC80 (60 μM); pIC50 = −log IC50 (M); read-out: GTPγS-hmGluR2 anGT pIC50 (converted)
Procedure: 1) [^35S]GTPγS Binding Assay [^35S]GTPγS Binding Assay Total reaction volume was 200 μl. […] Membrane-bound radioactivity was counted in a Topcount.
For each entry below, report its IC50 value.
Write it as a number; the unit M goes unstated.

In: Quick one: IC50 for C[C@H]1CN(c2ccc(C(F)(F)F)cc2)C(=O)c2c(NC(=O)c3ccc(N)cc3)cnn21 ?
Out: 2.82e-09

In: Input Cc1cc(C(=O)Nc2cnn3c2C(=O)N(c2ccc(C(F)(F)F)c(Cl)c2)C[C@@H]3C)ccn1
Out: 2.14e-09

In: Input COc1cccc(C(=O)Nc2cnn3c2C(=O)N(c2ccc(C(F)(F)F)c(OC)n2)C[C@@H]3C)c1
Out: 2.04e-08

In: Input Cc1cc(C(=O)Nc2cnn3c2C(=O)N(c2ccc(C(F)(F)F)c(Cl)c2)C[C@@H]3C)cc(N)n1
Out: 1.66e-09

---

For each entry below, report its log10 IC50 value.
target_system: human mGlu2 receptor (Homo sapiens, UniProt Q14416)
Construct: expressed in transfected cells; host or cells: CHO cells
assay_summary: [35S]GTPγS binding assay (mGluR2 negative allosteric modulation, glutamate ~EC80 60 μM)
Assay type: biochemical
condition_set: membranes from CHO cells transfected with human mGlu2 receptor; glutamate ~EC80 (60 μM); pIC50 = −log IC50 (M); read-out: GTPγS-hmGluR2 anGT pIC50 (converted)
Procedure: 1) [^35S]GTPγS Binding Assay [^35S]GTPγS Binding Assay Total reaction volume was 200 μl. […] Membrane-bound radioactivity was counted in a Topcount.
Quick note: numbers are log10 of IC50, with M as the unit.

In: Quick one: log10 IC50 for C[C@H]1CN(c2ccc(C(F)(F)F)c(Cl)c2)C(=O)c2c(NC(=O)c3cccnc3)cnn21 ?
Out: -8.66

In: Input COc1cncc(C(=O)Nc2cnn3c2C(=O)N(c2ccc(C(F)(F)F)c(Cl)c2)C[C@@H]3C)c1C
Out: -7.68

In: Input Cc1cc(C(=O)Nc2cnn3c2C(=O)N(c2ccc(Cl)c(Cl)c2)C[C@@H]3C)cc(C)n1
Out: -8.97

In: Input COc1ccc(F)c(C(=O)Nc2cnn3c2C(=O)N(c2ccc(C(F)(F)F)cc2)C[C@@H]3C)c1
Out: -8.04

In: Input C[C@H]1CN(c2ccc(C(F)(F)F)cc2)C(=O)c2c(NC(=O)c3cccnc3NCCO)cnn21 (racemic)
Out: -8.99

---

For each entry below, report its melting point value.
Write it as a number; the unit °C goes unstated.

In: Quick one: melting point for Cc1cc(C(=O)Nc2cnn3c2C(=O)N(c2ccc(C(F)(F)F)cc2)C[C@@H]3C)cc(N)n1 [Co. No. 162] ?
Out: 196.39

In: Input C[C@H]1CN(c2ccc(C(F)(F)F)cc2)C(=O)c2c(NC(=O)c3nccnc3N)cnn21 [Co. No. 206]
Out: 205.79

In: Input C[C@H]1CN(c2ccc(C(F)(F)F)cc2)C(=O)c2c(NC(=O)c3ccc(N)cc3)cnn21 [Co. No. 204]
Out: 250.78

In: Input COc1cccc(C(=O)Nc2cnn3c2C(=O)N(c2ccc(C(F)(F)F)cc2)C[C@@H]3C)c1F [Co. No. 59]
Out: 205.32

In: Input COc1ccccc1C(=O)Nc1cnn2c1C(=O)N(c1ccc(C(F)(F)F)c(OC)n1)C[C@@H]2C [Co. No. 75]
Out: 231.11

In: Input C[C@H]1CN(c2ccc(C(F)(F)F)cc2)C(=O)c2c(NC(=O)c3cnn(C)c3)cnn21 [Co. No. 86]
Out: 167.59

In: Input C[C@H]1CN(c2ccc(Cl)c(Cl)c2)C(=O)c2c(NC(=O)c3cccnc3N)cnn21 [Co. No. 185]
Out: 193.17

In: Input Cc1ccnc(N)c1C(=O)Nc1cnn2c1C(=O)N(c1ccc(C(F)(F)F)cc1)C[C@@H]2C (racemic) [Co. No. 192]
Out: 177.39

In: Input COc1cncc(C(=O)Nc2cnn3c2C(=O)N(c2ccc(C(F)(F)F)c(Cl)c2)C[C@@H]3C)c1C [Co. No. 121]
Out: 160.45

In: Input C[C@H]1CN(c2ccc(C(F)(F)F)cc2)C(=O)c2c(NC(=O)c3ccc(C#N)cn3)cnn21 [Co. No. 85]
Out: 291.58

In: Input C[C@H]1CN(c2ccc(C(F)(F)F)cn2)C(=O)c2c(NC(=O)c3ccc(N)nc3)cnn21 [Co. No. 61]
Out: 223.46

In: Input C[C@H]1CN(c2ccc(C(F)F)c(Cl)c2)C(=O)c2c(NC(=O)c3ccc(N)nc3)cnn21 [Co. No. 40]
Out: 133.34

In: Input COc1ccnc(C(=O)Nc2cnn3c2C(=O)N(c2ccc(C(F)(F)F)cc2)C[C@@H]3C)c1 [Co. No. 60]
Out: 227.69

In: Input Cc1cc(C(=O)Nc2cnn3c2C(=O)N(c2ccc(C(F)(F)F)c(F)c2)C[C@@H]3C)ccn1 [Co. No. 130]
Out: 134.44

In: Input Cc1ccncc1C(=O)Nc1cnn2c1C(=O)N(c1ccc(C(F)(F)F)c(C)c1)C[C@@H]2C [Co. No. 119]
Out: 200.3

In: Input C[C@H]1CN(c2ccc(C(F)(F)F)cc2)C(=O)c2c(NC(=O)c3cnc(N)s3)cnn21 [Co. No. 74]
Out: 283.48

In: Input COCC1CN(c2ccc(C(F)(F)F)cc2)C(=O)c2c(NC(=O)c3ccccc3F)cnn21 (single isomer, unassigned) [Co. No. 62a]
Out: 162.59

In: Input CNc1ncccc1C(=O)Nc1cnn2c1C(=O)N(c1ccc(C(F)(F)F)cc1)C[C@@H]2C [Co. No. 194]
Out: 161.97

In: Input C[C@H]1CN(c2ccc(C(F)(F)F)cc2)C(=O)c2c(NC(=O)c3ccncc3)cnn21 [Co. No. 55]
Out: 145.26

In: Input Cc1cncc(C(=O)Nc2cnn3c2C(=O)N(c2ccc(C(F)(F)F)c(F)c2)C[C@@H]3C)c1 [Co. No. 128]
Out: 163.67

In: Input Cc1cc(N2C[C@H](C)n3ncc(NC(=O)c4cnccn4)c3C2=O)ccc1C(F)(F)F [Co. No. 114]
Out: 225.49

In: Input COc1ccc(C(=O)Nc2cnn3c2C(=O)N(c2ccc(C(F)(F)F)cc2)C[C@@H]3C)cn1 [Co. No. 42]
Out: 127.02

In: Input COc1cc(N2C[C@H](C)n3ncc(NC(=O)c4cc(C)nc(C)c4)c3C2=O)ccc1C(F)(F)F [Co. No. 125]
Out: 226.99

In: Input COc1cncc(C(=O)Nc2cnn3c2C(=O)N(c2ccc(Cl)c(Cl)c2)C[C@@H]3C)c1 [Co. No. 149]
Out: 184.46

In: Input COc1cccc(C(=O)Nc2cnn3c2C(=O)N(c2ccc(C(F)(F)F)cc2)C[C@@H]3C)n1 [Co. No. 20]
Out: 190
